# MEASURED_ON: BCDIN3D (Homo sapiens)
# Sequence (Q7Z5W3 whole entry): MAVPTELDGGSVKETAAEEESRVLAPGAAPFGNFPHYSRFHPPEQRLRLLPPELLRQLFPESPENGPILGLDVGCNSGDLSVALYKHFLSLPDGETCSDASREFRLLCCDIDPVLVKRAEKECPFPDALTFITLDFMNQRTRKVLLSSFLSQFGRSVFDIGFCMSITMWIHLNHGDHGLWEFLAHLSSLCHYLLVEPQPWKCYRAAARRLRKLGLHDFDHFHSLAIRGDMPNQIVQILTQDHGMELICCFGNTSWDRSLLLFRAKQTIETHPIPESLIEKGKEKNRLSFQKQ
# ASSAY_DETAILS: BCDIN3D IC50 RFMS (RapidFire) assay with mini-helix
# Format: biochemical
# MEASUREMENT_SETUP: mini-helix substrate 0.2 μM, SAM 6 μM, 25 nM enzyme
VALUE_KIND: IC50 (nM)
Numbers only; they are read as nM.

Sample `Cn1ncc2c(Nc3ccccc3)nc(NCC3(N)CC3)nc21` ; IC50 observed: 490

# IC50 (compound: Cn1ncc2c(NC34CC(F)(C3)C4)nc(NCC(N)c3ccccc3)nc21 (stereo not shown) ) is 230

In plain terms, `[2H]C([2H])([2H])n1ncc2c(Nc3ccc(C(F)(F)F)cc3)nc(NC[C@H](N)c3ccccc3)nc21` has a documented IC50 of 13.9

Short answer for `Cn1ncc2c(Nc3cccnc3)nc(NCC3(N)CC3)nc21` : IC50 was 8680

----------
Assign IC50 to each entry below.
# MEASURED_ON: BCDIN3D (Homo sapiens)
# ASSAY_DETAILS: BCDIN3D InCellPulse thermal stability assay in transfected A549 cells
# Format: cell-based
# MEASUREMENT_SETUP: transiently transfected A549 cells, heat shock 58° C. 15 min
Give the quantity in nM, number only.

The molecule [2H]C([2H])([2H])n1ncc2c(NC(C)(C)C)nc(NCC(N)c3ccccc3)nc21 (stereo not shown) [Compound 4.52] , when measured on BCDIN3D (Homo sapiens), yielded IC50 of 536

Response field IC50 (BCDIN3D (Homo sapiens)) for item Cn1ncc2c(NC3(C)CCC3)nc(NC[C@H](N)c3ccccc3)nc21 [Compound 4.84] : 125

IC50 value, target or system BCDIN3D (Homo sapiens), for Cn1ncc2c(Nc3ccc(Cl)cc3)nc(NC[C@@H](N)c3ccccc3)nc21 [Compound 4.31] : 60000

The reported BCDIN3D (Homo sapiens) IC50 of Cn1ncc2c(NC3CCC3)nc(NC[C@H](N)c3ccccc3)nc21 [Compound 4.83] is 94.4

# lookup: Cn1ncc2c(NCC3CC34CCC4)nc(NC[C@H](N)c3ccccc3)nc21 (stereo partly shown) [Compound 4.104] on BCDIN3D (Homo sapiens), IC50 = 56

IC50 value, target or system BCDIN3D (Homo sapiens), for Cn1ncc2c(NC34CC(C3)C4)nc(NC[C@H](N)c3ccccc3)nc21 [Compound 4.66] : 137

Hey, BCDIN3D (Homo sapiens) data for Cn1ncc2c(NC3CC4(CCC4)C3)nc(NC[C@H](N)c3ccccc3)nc21 [Compound 4.99] : IC50 came out at 17

BCDIN3D (Homo sapiens) assay, molecule Cn1ncc2c(Nc3ccc(Cl)cn3)nc(NCC3(N)CC3)nc21 [Compound 2.46] , recorded IC50 = 6530

Kindly note: BCDIN3D (Homo sapiens), Cn1ncc2c(NC3CC(C)(C)C3)nc(NC[C@H](N)c3ccccc3)nc21 [Compound 4.96] , IC50 value reported: 21.8

Here Cn1ncc2c(NCCC(F)(F)F)nc(NC[C@H](N)c3ccccc3)nc21 [Compound 4.114] was tested on BCDIN3D (Homo sapiens), and its IC50 came to 1560

Simply: [2H]C([2H])([2H])n1ncc2c(Nc3ccc(C(F)(F)F)cc3)nc(NC[C@H](N)c3ccccc3)nc21 [Compound 4.24] , BCDIN3D (Homo sapiens), IC50 = 14.4

Assay BCDIN3D (Homo sapiens), sample Cn1ncc2c(Nc3cccc(Cl)c3)nc(NCC3(N)CC3)nc21 [Compound 2.35] , IC50 read: 1980

Entry Cn1ncc2c(NC(C)(C)C)nc(NCC(N)c3ccccc3F)nc21 (stereo not shown) [Compound 5.13] , BCDIN3D (Homo sapiens) data, IC50 value: 525

Item Cn1ncc2c(NCC3CC3(Cl)Cl)nc(NC[C@H](N)c3ccccc3)nc21 (stereo partly shown) [Compound 4.115] was tested on BCDIN3D (Homo sapiens); the reported IC50 is 271

Result for CNc1nc(NCC(N)c2cccc(C#N)c2)nc2c1cnn2C (stereo not shown) [Compound 5.04] , tested on BCDIN3D (Homo sapiens), IC50: 3640

# IC50 measured on BCDIN3D (Homo sapiens) for item Cn1ncc2c(NC34CC(F)(C3)C4)nc(NC[C@H](N)c3ccccc3)nc21 [Compound 4.67] = 168

Tested on BCDIN3D (Homo sapiens), the item CN[C@@H](CNc1nc(NC(C)(C)C)c2cnn(C)c2n1)c1ccccc1 [Compound 5.29] showed IC50 equal to 1690

Reported BCDIN3D (Homo sapiens) IC50 for item Cn1ncc2c(NC(C)(C)C)nc(NC[C@H](N)c3ccc(C#N)cc3)nc21 [Compound 5.28] was 370

Bench note, BCDIN3D (Homo sapiens): entry Cn1ncc2c(Nc3ccc(Cl)cc3)nc(NC[C@H](N)c3ccccc3)nc21 [Compound 4.30] , its IC50 = 62.6

// IC50 (BCDIN3D (Homo sapiens)) for Cn1ncc2c(NC(C)(C)C3CC3)nc(NC[C@H](N)c3ccccc3)nc21 [Compound 4.59] = 77.5

Case CNc1nc(NCC(N)c2ccccc2)nc2c1cnn2C (stereo not shown) [Compound 4.36] , BCDIN3D (Homo sapiens), IC50 recorded as 1860

IC50 on BCDIN3D (Homo sapiens) for Cn1ncc2c(Nc3ccc(OC(F)F)cc3)nc(NCC3(N)CCC3)nc21 [Compound 3.09] is 503

So the reported IC50 for COc1ccc(Nc2nc(NC[C@H](N)c3ccccc3)nc3c2cnn3C)cc1 [Compound 4.32] , on BCDIN3D (Homo sapiens), turned out to be 140

// IC50 (BCDIN3D (Homo sapiens)) for CC(C)(C)Nc1nc(NC[C@H](N)c2ccccc2)nc2c1cnn2C1CC1 [Compound 4.121] = 4810

Result for Cn1ncc2c(NC(C)(C)C)nc(NCC(N)c3ccccn3)nc21 (stereo not shown) [Compound 5.06] , tested on BCDIN3D (Homo sapiens), IC50: 1110
